Molecular target: HIF-2α (Homo sapiens (Human))
Sequence (Q99814 whole entry): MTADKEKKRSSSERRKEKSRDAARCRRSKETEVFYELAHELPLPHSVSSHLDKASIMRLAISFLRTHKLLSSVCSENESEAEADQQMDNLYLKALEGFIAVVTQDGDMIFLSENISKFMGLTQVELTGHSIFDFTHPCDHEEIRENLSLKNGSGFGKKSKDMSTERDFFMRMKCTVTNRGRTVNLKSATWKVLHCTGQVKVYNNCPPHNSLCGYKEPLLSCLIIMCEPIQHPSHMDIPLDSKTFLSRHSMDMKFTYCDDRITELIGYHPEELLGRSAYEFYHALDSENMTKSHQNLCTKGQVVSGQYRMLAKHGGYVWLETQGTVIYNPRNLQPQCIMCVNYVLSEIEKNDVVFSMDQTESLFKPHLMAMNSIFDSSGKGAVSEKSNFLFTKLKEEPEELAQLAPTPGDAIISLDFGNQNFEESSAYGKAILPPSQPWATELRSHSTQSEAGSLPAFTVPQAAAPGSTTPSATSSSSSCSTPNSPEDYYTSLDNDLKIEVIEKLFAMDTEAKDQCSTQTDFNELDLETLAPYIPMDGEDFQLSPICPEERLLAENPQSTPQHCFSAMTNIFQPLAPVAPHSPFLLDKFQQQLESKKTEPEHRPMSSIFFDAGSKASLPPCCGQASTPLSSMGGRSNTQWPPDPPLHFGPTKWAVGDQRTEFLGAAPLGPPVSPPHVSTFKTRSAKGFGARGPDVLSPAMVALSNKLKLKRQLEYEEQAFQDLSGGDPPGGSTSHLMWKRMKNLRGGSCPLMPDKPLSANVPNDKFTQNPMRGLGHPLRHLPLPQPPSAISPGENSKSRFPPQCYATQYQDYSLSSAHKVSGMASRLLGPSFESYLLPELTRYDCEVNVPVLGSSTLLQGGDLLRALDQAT
Assay: VEGF ELISA Assay
Assay type: cell-based
Details: VEGF expression in 786-O cells, ELISA of culture medium; read-out: EC50
pEC50: −log10 of the molar value.
Record rule met whenever pEC50 is at 6 or higher; record rule not met when lower.

Completed entries (count: 3):
{"MOLECULE": "CC1(O)c2c(ccc(Oc3cc(F)cc(C#N)c3)c2Br)C(F)(F)C1(F)F (stereo not drawn) [I-16]", "LABEL VALUE": "rule not met"}
{"MOLECULE": "OC1c2c(ccc(Oc3cc(F)cc(Cl)c3)c2C(F)F)C(F)(F)C1(F)F (stereo not drawn) [I-7]", "LABEL VALUE": "rule met"}
{"MOLECULE": "N#Cc1cc(F)cc(Oc2ccc3c(c2C(F)F)C(O)C(F)(Cl)C3(F)F)c1 (stereo not drawn) [I-20]", "LABEL VALUE": "rule met"}

Task: Given OC1c2c(ccc(Oc3cncc(F)c3)c2C(F)F)C(F)(F)C1(F)F (stereo not drawn) [I-10] , state whether its pEC50 is at least 6.
Output: rule met

Task: Hi, just wondering whether N#Cc1cc(F)cc(Oc2ccc3c(c2C(F)F)C(N)C(F)(F)C3(F)F)c1 (stereo not drawn) [I-3] shows pEC50 of 6 or higher.
Output: rule met

Task: Evaluate C=Cc1c(Oc2cc(F)cc(C#N)c2)ccc2c1C(C)(O)C(F)(F)C2(F)F (stereo not drawn) [I-17] : pEC50 at minimum 6?
Output: rule not met
